- System: green foxtail
- Procedure Text: Test F preemergence test
- Format: in vivo, Setaria viridis
- Experimental Context: 125 g ai/ha, preemergence, scale 0 to 100
Readout Type: Foxtail, Green plant response rating
Enter the number alone.

[
  {
    "Compound": "CC(c1c(C(F)(F)F)nn(C)c1OCC(F)(F)F)S(=O)(=O)c1cccc[n+]1[O-] (racemic) [Compound 33]",
    "Foxtail, Green plant response rating": 100
  },
  {
    "Compound": "Cc1cc[n+]([O-])c([S+]([O-])Cc2c(C(F)(F)F)nn(C)c2OCC(F)(F)F)c1 (racemic) [Compound 30]",
    "Foxtail, Green plant response rating": 100
  },
  {
    "Compound": "Cn1nc(C(F)(F)F)c(CS(=O)(=O)c2cccc[n+]2[O-])c1OCC(F)(F)F [Compound 29]",
    "Foxtail, Green plant response rating": 100
  },
  {
    "Compound": "Cn1nc(C(F)(F)F)c(C[S+]([O-])c2ccc(F)c[n+]2[O-])c1OC(F)F (stereo not shown) [Compound 58]",
    "Foxtail, Green plant response rating": 100
  },
  {
    "Compound": "Cn1nc(OC(F)F)c(CS(=O)(=O)c2cccc[n+]2[O-])c1C(F)(F)F [Compound 80]",
    "Foxtail, Green plant response rating": 95
  },
  {
    "Compound": "CC(Oc1c(CS(=O)(=O)c2cccc[n+]2[O-])c(C(F)(F)F)nn1C)C(F)(F)F (stereo not shown) [Compound 82]",
    "Foxtail, Green plant response rating": 95
  }
]

// switching to the query compound
Fill in the blank: the reported Foxtail, Green plant response rating of Cn1nc(C(F)(F)F)c(C[S+]([O-])c2ccc(Cl)c[n+]2[O-])c1OCC(F)(F)F (racemic) [Compound 62] is ____.
100

====

- Test system: Goosegrass
- Procedure Text: Test C pre-/postemergence test
- Format: in vivo, Eleusin indica
- Experimental Context: Preemergence, 31 g ai/ha; scale 0 to 100 (0 no effect, 100 complete control)
Readout Type: Plant response rating, Goosegrass
Enter the number alone.

// below: answered compounds
[
  {
    "Compound": "CC(Oc1c(CS(=O)(=O)c2cccc[n+]2[O-])c(C(F)(F)F)nn1C)C(F)(F)F (stereo not shown)",
    "Readout Type": "Plant response rating, Goosegrass",
    "Value Measured": 90
  },
  {
    "Compound": "Cn1nc(C(F)(F)F)c(C(Cl)S(=O)(=O)c2cccc[n+]2[O-])c1OCC(F)(F)F (racemic)",
    "Readout Type": "Plant response rating, Goosegrass",
    "Value Measured": 85
  },
  {
    "Compound": "Cn1nc(C(F)(F)F)c(C[S+]([O-])c2cccc[n+]2[O-])c1OCC(F)(F)F (racemic)",
    "Readout Type": "Plant response rating, Goosegrass",
    "Value Measured": 100
  }
]

Lookup: Plant response rating, Goosegrass / Goosegrass / "Cn1nc(C(F)(F)F)c(CS(=O)(=O)c2cccc[n+]2[O-])c1OCC(F)F"
55

====

- System: velvetleaf
- Procedure Text: Test A pre-/postemergence greenhouse test
- Type: in vivo, Abutilon theophrasti
- Experimental Context: Preemergence, 500 g ai/ha; 0 to 100 scale, 0 no effect, 100 complete control
- Excerpt: Seeds of barnyardgrass (Echinochloa crus-galli), crabgrass (Digitaria sanguinalis), giant foxtail (Setaria faberi), morningglory (Ipomoea spp.), redroot pigweed (Amaranthus retroflexus), velvetleaf (Abutilon theophrasti), wheat (Triticum aestivum), and corn (Zea mays) were planted into a blend of loam soil and sand and treated preemergence with a directed soil spray using test compounds formulated in a non-phytotoxic solvent mixture which included a surfactant. […]
Reported Velvetleaf plant response rating values for the following compounds.
Enter the number alone.

[
  {
    "Compound": "Cn1nc(C(F)(F)F)c(CS(=O)(=O)c2cc(C3CC3)cc[n+]2[O-])c1OCC(F)(F)F [Compound 119]",
    "Velvetleaf plant response rating": 70
  },
  {
    "Compound": "Cn1nc(C(F)(F)F)c(CS(=O)(=O)c2ccc(F)c[n+]2[O-])c1OC(F)F [Compound 107]",
    "Velvetleaf plant response rating": 10
  },
  {
    "Compound": "CC(C)c1cc[n+]([O-])c(S(=O)(=O)Cc2c(C(F)(F)F)nn(C)c2OC(F)F)c1 [Compound 110]",
    "Velvetleaf plant response rating": 100
  }
]

// switching to the query compound
Fill in the blank: the reported Velvetleaf plant response rating of Cc1cc[n+]([O-])c(S(=O)(=O)Cc2c(C(F)(F)F)nn(C)c2OCC(F)F)c1 [Compound 94] is ____.
100
